target: recombinant human NGF protein (human, UniProt P01138 122-241); test: cell-based or functional assay
Sequence (P01138 122-241 limits assumed): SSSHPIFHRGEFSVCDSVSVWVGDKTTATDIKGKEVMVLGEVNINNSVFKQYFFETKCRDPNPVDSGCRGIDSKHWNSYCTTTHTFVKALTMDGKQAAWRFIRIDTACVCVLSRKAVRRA
Listed below: IC50, inhibition of NGF-induced proliferation of TF-1 cell values for each entry.
Please give a number only; it is taken to be in pM.

Completed entries (count: 2):
# binder, assay_value
measured = [
    ("humanized anti-NGF antibody 138E12-02 (antibody, V domains shown, Humanized antibody expressed in CHO cells) VH: QVQLQESGPGLVKPSETLSLTCTVSGFSLTGYGVNWIRQPPGKGLEWLGMIWFDGSTDYNSALKSRLTISKDNSKSQVSLKLSSVTAADTAVYYCAREGYYYGTTYYFDYWGQGTTVTVSS VL: DIQMTQSPSSLSASVGDRVTITCRASQDISNYLNWYQQKPGKAPKLLIYYTSRLHSGVPSRFSGSGSGTDYTLTISSLQPEDFATYFCQQGNTLPRTFGGGTKVEIK", 64),
    ("humanized anti-NGF antibody 43E5-06 (antibody, V domains shown, Humanized antibody expressed in CHO cells) VH: QVQLVQSGAEVKKPGSSVKVSCKASGYTFTDYEMHWVRQAPGQGLEWIGAIDPETGGTAYNQKFKGRATLTADKSTSTAYMELSSLRSEDTAVYYCRRGANLNHYGNDEGSYWGQGTLVTVSS VL: DVVMTQSPLSLPVTLGQPASISCKSSQSLLHSVGKTYLNWLQQRPGQSPRRLIYLVSKLDSGVPDRFSGSGSGTDFTLKISRVEAEDVGVYFCWQGTHLPQTFGGGTKVEIK", 568),
]

Reported IC50, inhibition of NGF-induced proliferation of TF-1 cell of human-mouse chimeric antibody 138E12-Chi (antibody, V domains shown, the constant regions are not specified) VH: QVQLKESGPGLVAPSQSLSITCTVSGFSLTGYGVNWVRQPPGKGLEWLGMIWFDGSTDYNSALKSRLSISKDNSKSQVFLKMNSLQTDDTARYYCAREGYYYGTTYYFDYWGQGTTLTVSS VL: DIQMTQTTSSLSASLGDRVTISCRASQDISNYLNWYQQKPDGTVKLLIYYTSRLHSGVPSRFSGSGSGTDYSLTISNLEQEDIATYFCQQGNTLPRTFGGGTKLEIK : 74
